# inhibition values compiled below
experimental_system: Furin (Homo sapiens)
method_description: Inhibition of human furin in human PANC-1 cells assessed as release of fluorescent AMC using Pyr-Arg-Thr-Arg-AMC as substrate preincubated for 10 mins in presence of SFTI-1 then incubation with ligand for 30 mins followed by substrate addition by plate reader analysis
Format: cell-based
condition_set: time 40.0 min
Bridge positions count the residues as written; N and C are the ends. Peptide text beside a SMILES is read from it.
Express the result in % but write the number alone.

Worked examples, 3 compounds total:
// lookup inhibition for CC[C@H](C)[C@@H]1NC(=O)[C@@H]2CCCN2C(=O)[C@@H]2CCCN2C(=O)[C@H]([C@@H](C)CC)NC(=O)[C@H](CO)NC(=O)[C@H](CCCCN)NC(=O)[C@H](CCCCN)NC(=O)[C@@H]2CSSC[C@H](NC1=O)C(=O)N[C@@H](Cc1ccccc1)C(=O)N[C@@H](CCCNC(=N)N)C(=O)N[C@@H](CCCNC(=N)N)C(=O)N[C@@H](CCCNC(=N)N)C(=O)N2 (cyclo(RRRCKKSIPPICF); disulfide 4-12)
45.2

// lookup inhibition for CC[C@H](C)[C@@H]1NC(=O)[C@@H]2CCCN2C(=O)[C@@H]2CCCN2C(=O)[C@H]([C@@H](C)CC)NC(=O)[C@H](CO)NC(=O)[C@H](CCCCN)NC(=O)[C@H](CCCCN)NC(=O)[C@@H](NC(=O)[C@H](CCCNC(=N)N)NC(=O)[C@@H](N)CCCCN)CSSC[C@@H](C(=O)N[C@@H](Cc2ccccc2)C(N)=O)NC1=O (H-KRCKKSIPPICF-NH2; disulfide 3-11)
34.7

// lookup inhibition for CC[C@H](C)[C@@H]1NC(=O)[C@@H]2CCCN2C(=O)[C@@H]2CCCN2C(=O)[C@H]([C@@H](C)CC)NC(=O)[C@H](CO)NC(=O)[C@H](CCCCN)NC(=O)[C@H](CCCCN)NC(=O)[C@@H](NC(=O)[C@H](CCCNC(=N)N)NC(=O)[C@H](CCCNC(=N)N)NC(=O)[C@@H](N)CCCNC(=N)N)CSSC[C@@H](C(=O)N[C@@H](Cc2ccccc2)C(N)=O)NC1=O (H-RRRCKKSIPPICF-NH2; disulfide 4-12)
46.6

Turning now to a further record.
// lookup inhibition for CC[C@H](C)[C@@H]1NC(=O)[C@@H]2CCCN2C(=O)[C@@H]2CCCN2C(=O)[C@H]([C@@H](C)CC)NC(=O)[C@H](CO)NC(=O)[C@H](CCCCN)NC(=O)[C@H](CCCCN)NC(=O)[C@@H]2CSSC[C@H](NC1=O)C(=O)N[C@@H](Cc1ccccc1)C(=O)N[C@@H](CCCCN)C(=O)N[C@@H](CCCNC(=N)N)C(=O)N[C@@H](CCCNC(=N)N)C(=O)N2 (cyclo(KRRCKKSIPPICF); disulfide 4-12)
45.9

----------
experimental_system: Furin (Homo sapiens)
method_description: Inhibition of recombinant human furin using Pyr-Arg-Thr-Lys-Arg-AMC as substrate at 2.4 nM preincubated for 30 mins followed by substrate addition and measured for 40 mins by microplate reader method
condition_set: time 70.0 min
Bridge positions count the residues as written; N and C are the ends. Peptide text beside a SMILES is read from it.
# inhibition values compiled below
Express the result in % but write the number alone.

Worked examples, 5 compounds total:
// lookup inhibition for CC[C@H](C)[C@@H]1NC(=O)[C@@H]2CCCN2C(=O)[C@@H]2CCCN2C(=O)[C@H]([C@@H](C)CC)NC(=O)[C@H](CO)NC(=O)[C@H](CCCCN)NC(=O)[C@H](CCCCN)NC(=O)[C@@H](NC(=O)[C@H](CCCNC(=N)N)NC(=O)[C@@H](N)CCCNC(=N)N)CSSC[C@@H](C(=O)N[C@@H](Cc2ccccc2)C(N)=O)NC1=O (H-RRCKKSIPPICF-NH2; disulfide 3-11)
63

// lookup inhibition for CC[C@H](C)[C@@H]1NC(=O)[C@@H]2CCCN2C(=O)[C@@H]2CCCN2C(=O)[C@H]([C@@H](C)CC)NC(=O)[C@H](CO)NC(=O)[C@H](CCCCN)NC(=O)[C@H](CCCCN)NC(=O)[C@@H]2CSSC[C@H](NC1=O)C(=O)N[C@@H](Cc1ccccc1)C(=O)N[C@@H](CCCCN)C(=O)N[C@@H](CCCNC(=N)N)C(=O)N[C@@H](CCCNC(=N)N)C(=O)N2 (cyclo(KRRCKKSIPPICF); disulfide 4-12)
40.2

// lookup inhibition for CC[C@H](C)[C@@H]1NC(=O)[C@@H]2CCCN2C(=O)[C@@H]2CCCN2C(=O)[C@H]([C@@H](C)CC)NC(=O)[C@H](CO)NC(=O)[C@H](CCCCN)NC(=O)[C@H](CCCCN)NC(=O)[C@@H]2CSSC[C@H](NC1=O)C(=O)N[C@@H](Cc1ccccc1)C(=O)N[C@@H](CCCNC(=N)N)C(=O)N[C@@H](CCCNC(=N)N)C(=O)N2 (cyclo(CFRRCKKSIPPI); disulfide 1-5)
97.2

// lookup inhibition for CC[C@H](C)[C@@H]1NC(=O)[C@@H]2CCCN2C(=O)[C@@H]2CCCN2C(=O)[C@H]([C@@H](C)CC)NC(=O)[C@H](CO)NC(=O)[C@H](CCCCN)NC(=O)[C@H](CCCCN)NC(=O)[C@@H](NC(=O)[C@H](CCCNC(=N)N)NC(=O)[C@H](CCCNC(=N)N)NC(=O)[C@@H](N)CCCNC(=N)N)CSSC[C@@H](C(=O)N[C@@H](Cc2ccccc2)C(N)=O)NC1=O (H-RRRCKKSIPPICF-NH2; disulfide 4-12)
43.7

// lookup inhibition for CC[C@H](C)[C@@H]1NC(=O)[C@@H]2CCCN2C(=O)[C@@H]2CCCN2C(=O)[C@H]([C@@H](C)CC)NC(=O)[C@H](CO)NC(=O)[C@H](CCCCN)NC(=O)[C@H](CCCCN)NC(=O)[C@@H](NC(=O)[C@H](CCCNC(=N)N)NC(=O)[C@H](CCCNC(=N)N)NC(=O)[C@@H](N)CCCCN)CSSC[C@@H](C(=O)N[C@@H](Cc2ccccc2)C(N)=O)NC1=O (H-KRRCKKSIPPICF-NH2; disulfide 4-12)
66.5

Turning now to a further record.
// lookup inhibition for CC[C@H](C)[C@@H]1NC(=O)[C@@H]2CCCN2C(=O)[C@@H]2CCCN2C(=O)[C@H]([C@@H](C)CC)NC(=O)[C@H](CO)NC(=O)[C@H](CCCCN)NC(=O)[C@H](CCCCN)NC(=O)[C@@H]2CSSC[C@H](NC1=O)C(=O)N[C@@H](Cc1ccccc1)C(=O)N[C@@H](CCCNC(=N)N)C(=O)N[C@@H](CCCNC(=N)N)C(=O)N[C@@H](CCCNC(=N)N)C(=O)N2 (cyclo(RRRCKKSIPPICF); disulfide 4-12)
34.7
